- Test system: TAOK1;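 note: KINOMEscan kinase panel screen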
- conditions: concentration: 1 μM, replicates: in singlicate; n = 1
readout-type: %Inh (%)

# compound, value
records = [
    ("CN(c1ccc(F)c(NC(=O)c2cccc(OC(C)(C)C#N)c2Cl)c1)c1ccc2nc(NC(=O)C3CC3)sc2n1", 49),
    ("CN(c1ccc2c(c1)nc(NCc1ccccc1)n2C)c1ccnc(Nc2ccc(CS(C)(=O)=O)cc2)n1.Cl", 0),
    ("CSc1ccc(NC2=C(c3ccc(Cl)cc3)C(=O)NC2=O)cc1", 18),
    ("CCn1cnc2c(NCc3ccccc3)ncnc21", 0),
    ("O=C(Nc1n[nH]c2cc(-c3cccs3)ccc12)C1CC1", 61),
    ("CN1CCN(Cc2ccc(NC(=O)Nc3ccc(N(C)c4ccnc(Nc5ccc(CS(C)(=O)=O)cc5)n4)cc3)cc2)CC1.Cl", 13),
    ("O=C(O)C(F)(F)F.O=c1[nH]ccc2nc(N[C@@H]3CCNC3)nc(Nc3ccc4c(c3)S(=O)(=O)CC4)c12", 90.3),
    ("O=C(Nc1c(F)cccc1F)c1cc(C(=O)c2ccccc2F)c[nH]1", 0),
    ("COc1ccc(NC(=O)c2ccoc2)cc1-c1ccc(C(=O)NCC2CC2)cc1", 23),
    ("COC(=O)Nc1nc2ccc(Oc3ccc(NC(=O)Nc4cc(C(F)(F)F)ccc4F)cc3)cc2[nH]1.Cl", 0),
    ("COC(=O)Nc1nc2ccc(Oc3ccc(CC(=O)Nc4cc(C(F)(F)F)ccc4F)cc3)cc2[nH]1", 0),
    ("O=C(O)C(F)(F)F.O=c1[nH]ccc2nc(N[C@@H]3CCNC3)nc(Nc3cc(Cl)cc(Cl)c3)c12", 34),
    ("CCOc1nccc(-c2c(-c3ccc(F)cc3)ncn2C2CCNCC2)n1", 100),
    ("Cc1nn2c(=O)cc(N3CCO[C@H](C)C3)nc2n1Cc1cccc(Cl)c1Cl", 0),
    ("COc1ccc(C)c(Nc2ccnc(Nc3ccc(-c4cnc[nH]4)cc3)n2)c1.Cl", 0),
    ("Cl.O=C(Nc1ccc(Oc2ccc3[nH]c(NC(=O)c4ccco4)nc3c2)cc1)Nc1cc(C(F)(F)F)ccc1F", 0),
    ("O=C(Nc1n[nH]c2nc(-c3cccc(O)c3)ccc12)C1CC1", 88),
]
